# run.description: Quantification of compounds in mice plasma by LC-MS-MS and PK parameters after i.v. injection
# Assay type: in vivo
# reported.conditions: Balb/C, mouse, in vivo, iv, 25 mg/kg, AUC0−t
readout: AUC(0-t) (nM·h)
// note: answer is a bare numeric in nM·h

Suppose we examine the compound C/C1=C\[C@H](C)C(=O)C[C@@H](O)/C(C)=C/[C@H](C)C[C@@H](C)CC[C@@H]([C@@H](C)C(=O)O)OC(=O)[C@@H](C)C1 [Strasseriolide C, strasseriolide C] ; what AUC(0-t) value has been reported? 766

Next up: C/C1=C\[C@H](C)CCC(=O)/C(C)=C/[C@H](C)C[C@@H](C)CC[C@@H]([C@@H](C)C(=O)O)OC(=O)[C@@H](C)C1 [Strasseriolide A, strasseriolide A] 1140

Next up: C/C1=C\[C@H](C)[C@@H](O)C[C@@H](O)/C(C)=C/[C@H](C)C[C@@H](C)CC[C@@H]([C@@H](C)C(=O)O)OC(=O)[C@@H](C)C1 [Strasseriolide D, strasseriolide D] 10100

* * *

Answer each item with its documented concentration at 2 h.
# run.description: Quantification of compounds in mice plasma by LC-MS-MS and PK parameters after i.v. injection
# Assay type: in vivo
# reported.conditions: Balb/C, mouse, in vivo, iv, 25 mg/kg, Ave. Conc. in plasma
// note: answer is a bare numeric in nM

Suppose we examine the compound C/C1=C\[C@H](C)CCC(=O)/C(C)=C/[C@H](C)C[C@@H](C)CC[C@@H]([C@@H](C)C(=O)O)OC(=O)[C@@H](C)C1 [Strasseriolide A, strasseriolide A] ; what concentration at 2 h value has been reported? 93.5

Next up: C/C1=C\[C@H](C)C(=O)C[C@@H](O)/C(C)=C/[C@H](C)C[C@@H](C)CC[C@@H]([C@@H](C)C(=O)O)OC(=O)[C@@H](C)C1 [Strasseriolide C, strasseriolide C] 40

* * *

# run.description: Metabolic stability assay in human liver microsomes
# Type: in vitro ADME
# reported.conditions: ranked by CLint
# Protocol: Pretreatment of the 96-well ABgen-0765 reaction plates was the same as previously described above. […] The reactions were then initiated by the addition of 100 µL of HLM solution (at final protein concentration of 1 mg/mL), after which they were stopped at pre-determined incubation times of 0, 10, 15, 30, 45 and 60 min by adding 90 µL acetonitrile containing internal LC–MS–MS standards and shaking at 180 Hz. […] The intrinsic clearance (CLint) was determined by the equation: CLint […]
readout: Clearance Category

molecule	readout	result
C/C1=C\[C@H](C)CCC(=O)/C(C)=C/[C@H](C)C[C@@H](C)CC[C@@H]([C@@H](C)C(=O)O)OC(=O)[C@@H](C)C1 [Strasseriolide A, strasseriolide A]	Clearance Category	High
C/C1=C\[C@H](C)[C@@H](O)C[C@@H](O)/C(C)=C/[C@H](C)C[C@@H](C)CC[C@@H]([C@@H](C)C(=O)O)OC(=O)[C@@H](C)C1 [Strasseriolide D, strasseriolide D]	Clearance Category	Low
C/C1=C\[C@H](C)CC[C@@H](O)/C(C)=C/[C@H](C)C[C@@H](C)CC[C@@H]([C@@H](C)C(=O)O)OC(=O)[C@@H](C)C1 [Strasseriolide B, strasseriolide B]	Clearance Category	High
